Known activity, negative = inhibition of a selection of compounds
test_name: Stat Signaling Pathway (AID 446);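 note: ME-180 cervical cancer cells given 40 pM IL-6 alongside compound; SIE-controlled beta-lactamase reporter measured as 460/530 nm FRET emission ratio; % is set by controls: 0 for no effect and ±100 for the full control effect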
stated_conditions: ME-180 (cervical carcinoma) SIE beta-lactamase reporter, IL-6 stimulated, 5 h; at 38 µM (top of the series)
Records with an inconclusive call do not appear.
quantity: activity, negative = inhibition (%)

record_smiles	display_unit	measured
CCCCc1ccc(C(=O)O)nc1	%	9.55
NCc1cc(=O)[nH]o1	%	-1.4
NCCc1c[nH]c2ccc(O)cc12	%	-13.2
c1ccc(CCCN2CCN(CCOC(c3ccccc3)c3ccccc3)CC2)cc1	%	-17.9
Cc1nccc2c1[nH]c1ccccc12	%	11
S=C(NC1CCCCC1)N1CCC(c2cnc[nH]2)CC1	%	6.17
Cn1cnc(CCN)c1	%	0.0099
CC[C@@]1(O)C(=O)OCc2c1cc1n(c2=O)Cc2cc3ccccc3nc2-1	%	42.7
O=C1CCCN1CC#CCN1CCCC1	%	-7.65
c1ccc2sc(C3(N4CCCCC4)CCCCC3)cc2c1	%	-24.8

###

System: GB4
test_name: qHTS profiling for inhibitors of Plasmodium falciparum proliferation (AID 504749); note: nearly all actives have a fitted effect of over 60% in size
stated_conditions: P. falciparum in erythrocytes, SYBR Green DNA, 72 h; series mostly up to 28.7 µM
Records with an inconclusive call do not appear. Activity calls are given as the source filed them. The call rests on the fitted dose curve; in most records, active means well fitted inhibition curve with a large enough effect; inconclusive means small, poorly fitted or top-dose-only effect; inactive means flat fitted curve, though single readings scatter.
Classes used: active, inactive

molecule	assayed_system	assigned_label
COC(=O)c1cncn1C(C)c1ccccc1 (stereo unspecified)	GB4	inactive
C[C@]12CCC(=O)C(O)=C1CC[C@@H]1[C@H]3CCC(=O)[C@@]3(C)CC[C@@H]12	GB4	inactive
O=[N+]([O-])c1ccc([As](=O)(O)O)cc1	GB4	active
CC(=O)OCC1=C(C(=O)O)N2C(=O)[C@@H](N)[C@@H]2SC1	GB4	inactive
Cc1cc(O)ccc1Cl	GB4	inactive
CC(=O)[O][Hg][c]1ccccc1	GB4	active
CN1C2CCC1CC(OC(=O)c1cc(Cl)cc(Cl)c1)C2 (stereo unspecified)	GB4	inactive
O=C(O)COc1ccccc1	GB4	inactive
COC(=O)[C@@H](N)CCCN=C(N)N[N+](=O)[O-]	GB4	inactive
C1CCC(NC2CCCCC2)CC1	GB4	inactive
O=C(O)C(Cl)Cl	GB4	inactive

###

test_name: qHTS for Inhibitors of the Functional Ribonucleoprotein Complex (vRNP) of Lassa (LASV) Arenavirus: Viability assay - alamar blue signal for LASV Primary Screen (AID 1347083); note: nearly all actives have a fitted effect of over 80% in size
stated_conditions: cell viability, alamar blue fluorescence (LASV minigenome counter-screen); series mostly up to 57.5 µM
Records with an inconclusive call do not appear. Activity calls are given as the source filed them. Calls come from the whole dose curve; tested in HEK293 reporter line.
Possible outcomes: true = active, false = inactive

compound	assigned_label
CC[C@@H]1[C@@H](C)O[C@@](O)([C@@H](C)[C@H](O)[C@H](C)[C@H]2OC(=O)C=CC=C[C@@H](C)[C@@H]([C@@H](C)[C@@H](O)[C@H](C)[C@@]3(O)C[C@H](O[C@H]4C[C@H](O)[C@H](O)[C@H](C)O4)[C@H](CC)[C@@H](C)O3)OC(=O)C=CC=C[C@@H]2C)C[C@H]1O[C@H]1C[C@H](O)[C@H](O)[C@H](C)O1	true
COCCn1c2c([n+](Cc3cnccn3)c1C)C(=O)c1ccccc1C2=O	true
C[C@H]1CCCC=CC2C[C@H](O)C[C@@H]2[C@H](O)C=CC(=O)O1 (some centres not stated)	true
NC(=O)c1ccc(-c2nc(-c3ccc4c(c3)OCCO4)c(-c3ccccn3)[nH]2)cc1	true
Cc1cc(SCc2sc(-c3ccc(C(F)(F)F)cc3)nc2C)ccc1OCC(=O)O	false
Cc1ccc(C(=O)N(CCCN)[C@@H](c2nc3cc(Cl)ccc3c(=O)n2Cc2ccccc2)C(C)C)cc1	false
CC(C)[C@H](C(=O)Nc1ccc(C(=O)NO)cc1)c1ccccc1	true
